Biological target: PD-1/PD-L1 (Homo sapiens (Human))
Sequence (Q9NZQ7 19-238): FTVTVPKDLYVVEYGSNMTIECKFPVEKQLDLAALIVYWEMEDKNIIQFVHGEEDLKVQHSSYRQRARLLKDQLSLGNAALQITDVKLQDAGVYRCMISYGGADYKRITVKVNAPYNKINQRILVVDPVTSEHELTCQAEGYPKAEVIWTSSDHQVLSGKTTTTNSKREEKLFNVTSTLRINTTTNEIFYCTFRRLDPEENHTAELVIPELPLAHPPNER
Assay: Homogenouse Time-Resolved Fluorescence (HTRF) binding assay PD-1/PD-L1
Conditions: CisBio kit #64CUS000C-1
Description: Homogenouse Time-Resolved Fluorescence (HTRF) binding assay was used to determine the binding activity of the compound of the present disclosure to PD-1/PD-L1. The purchased kit (CisBio, #64CUS000C-1) contained the reagents required for experiments such as PD-1, PD-L1, anti-tag1-Eu, Anti-tag2-XL665, Dilute Buffer and Detection Buffer. 1. The compound was formulated to 10 concentrations with a three-fold concentration gradient with 100% DMSO. 2. […] 7. HTRF values were read by Envision.
readout_kind: IC50 (µM)
All answers are understood in µM, so give the number only.

1. Cc1c(/C=C/c2cc(CN[C@@](C)(CO)C(=O)O)ccc2C(F)(F)F)cccc1-c1cn2ccnc2cn1
1.3

Here's the next entry for you.
Query block: I have this compound here, `Cc1nc2ccc(-c3cccc(/C=C/c4cc(CN[C@@](C)(CO)C(=O)O)ccc4C(F)(F)F)c3C)cc2o1` , and I need its recorded IC50.
Result block: 0.54
